Target: T1, human CD25 on CHO-K1/hCD25 cells (human, UniProt P01589 22-272)
T1 construct: whole, on cells; The construct of the cell line is not described
T1 sequence (looked up): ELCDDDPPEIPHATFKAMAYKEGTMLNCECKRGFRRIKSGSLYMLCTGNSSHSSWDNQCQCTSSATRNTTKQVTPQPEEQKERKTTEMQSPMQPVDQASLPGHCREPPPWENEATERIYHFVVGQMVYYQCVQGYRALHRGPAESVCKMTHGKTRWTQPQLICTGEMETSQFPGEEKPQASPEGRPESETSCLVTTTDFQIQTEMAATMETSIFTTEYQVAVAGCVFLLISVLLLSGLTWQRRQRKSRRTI
Assay: flow cytometry on CHO-K1/hCD25 cells
READOUT LABEL: Relative activity (%) compared with 686
Be sure to follow the number with its unit.

{"columns": ["BINDER", "MEAS VALUE"],
 "data": [
  ["chimeric antibody 2046-24H2L1 (antibody, human IgG1, kappa, V domains shown, Chimeric, human IgG1/kappa; also called 2046-24ix) VH: DVQLQESGPGLVKPSQSLSLTCTVTGYSITSDYAWNWIRQFPGNKLEWMGYISYGGTTIYNPSLKSRISITRDTSKNQFFLQLNSVTTEDTATYYCARWLLQNYYAMDYWGQGTSVTVSS VL: DVVMTQTPLSLPVSLGDQASISCRSSQSLVHSNGNTYLHWYLQKPGQSPKVLIYKVSNRFSGVPDRFSGSGSGTDFTLKISRVEAEDLGVYFCSQNTHVPLTFGAGTKLELKR", "131%"],
  ["chimeric antibody 2046-111H2L1 (antibody, human IgG1, kappa, V domains shown, Chimeric, human IgG1/kappa) VH: DVQLQESGPGLVKPSQSLSLTCTVTGHSITSDYAWNWIRQFPGNKLEWMGYISYSGSTIYNPSLKSRISITRDTSKNQFFLQLNSVTTEDTATYYCARWLLQNYYAMDYWGQGTSVTVSS VL: DVVMTQTPLSLPVSLGDQASISCRSSQSLVHSNGNTYLHWYLRKPGQSPKLLIYKVSNRFSGVPDRFSGSGSGTDFTLKISRVEAEDLGVYFCSQSTHVPLTFGAGTKLELKR", "132%"]
]}

QUERY: Looking for the measured Relative activity (%) compared with 686 of chimeric antibody 2047-10H1L2 (antibody, human IgG1, kappa, V domains shown, Chimeric, human IgG1/kappa; also called 2047-10ix) VH: QVQLQQSGPELVRPGVSVKISCKGSGYTFTDYAMHWVKQSHAKSLEWIGVISTYNGNTNYNQKFKGKATMTVDKSSSTAYMELARLTSEDSAIYYCARSYGNYPFDYWGQGTTLTVSS VL: DIKMTQSPSSMYASLGERVTITCKASQDINSYLSWFQQKPGKSPKTLIYRANRLVDGVPSRFSGSGSGQDYSLTISSLEYEDMGIYYCLQYDEFPYTFGGGTKLEIKR , can you help?
RESULT: 120%
